Target: D(2) dopamine receptor (Homo sapiens)
Sequence (P14416 whole entry): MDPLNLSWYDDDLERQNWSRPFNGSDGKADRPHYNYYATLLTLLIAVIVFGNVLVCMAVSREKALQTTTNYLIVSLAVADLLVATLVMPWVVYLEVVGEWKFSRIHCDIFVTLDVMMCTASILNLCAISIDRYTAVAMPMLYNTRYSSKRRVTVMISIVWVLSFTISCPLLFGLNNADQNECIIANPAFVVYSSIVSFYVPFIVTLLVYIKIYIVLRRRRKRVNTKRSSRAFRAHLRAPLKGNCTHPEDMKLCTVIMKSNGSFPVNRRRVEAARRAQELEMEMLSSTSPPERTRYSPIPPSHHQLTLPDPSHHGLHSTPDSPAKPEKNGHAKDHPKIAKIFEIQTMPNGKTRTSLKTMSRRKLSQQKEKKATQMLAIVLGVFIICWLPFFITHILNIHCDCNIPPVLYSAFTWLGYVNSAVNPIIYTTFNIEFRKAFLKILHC
Test: Displacement of [3H] raclopride from human recombinant D2L receptor expressed in HEK293 cells measured after 1 hr by microbeta scintillation counting method
MEASUREMENT_LABEL: Ki (µM)

# TEST_SMILES, NUMBER
measured = [
    ("CCn1cncc1-c1c[nH]c2ccc(C(F)(F)F)cc12", 8.71),
]

[I] CCn1cncc1-c1c[nH]c2ccc(I)c(F)c12
[II] Cn1cncc1-c1c[nH]c2ccc(I)c(F)c12
Enquiry: Of I and II , whose reported Ki is the larger number? State the label of the item chosen.
Return: I
(I: 7.08 µM, II: 1.86 µM)

* * *

Target: D(2) dopamine receptor (Homo sapiens)
Assay: Displacement of [3H] raclopride from human recombinant D2L receptor expressed in HEK293 cells measured after 1 hr by microbeta scintillation counting method
pKi: −log10 of the molar value.
Attribute: pKi

Known results for compounds:
# TEST_SMILES, STUDY_TARGET, RESULT
records = [
    ("Cn1cncc1-c1c[nH]c2ccc(C(N)=O)c(F)c12", "D(2) dopamine receptor (Homo sapiens)", "< 5.00"),
    ("CCn1cncc1-c1c[nH]c2ccc(C(N)=O)c(F)c12", "D(2) dopamine receptor (Homo sapiens)", "< 5.00"),
    ("CCn1cncc1-c1c[nH]c2ccc(Cl)cc12", "D(2) dopamine receptor (Homo sapiens)", "< 5.00"),
]

Now take the following compound into account.
Enquiry: Requested read-out pKi, target or system D(2) dopamine receptor (Homo sapiens), entry "CCOc1ccc2[nH]cc(-c3cncn3CC)c2c1"
Return: < 5.00
